Provenance of the data: paper PMC11346428

Target: SHANK1 PDZ domain (656–762) (Homo sapiens)
Construct: Human SHANK1 PDZ domain (656–762) was prepared as described previously; GST (N, cleaved yes); made in house; host or cells: E. coli BL21 Gold (pGEX-6P-2)
Sequence (Q9Y566 656-762): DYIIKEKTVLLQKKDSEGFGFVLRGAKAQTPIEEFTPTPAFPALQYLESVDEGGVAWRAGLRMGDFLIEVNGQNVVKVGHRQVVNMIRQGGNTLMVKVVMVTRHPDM
Assay: Isothermal titration calorimetry (ITC)
Details: 25 mM Tris, pH 7.5, 150 mM NaCl, 25°C; 500 μM peptide injected into 50 μM protein; one-binding site model
Measurement Kind: Kd (nM)

Ac-EESTSFQGP-NH2	960
